target: T1, human neonatal Fc receptor (hFcRn) (human, UniProt P55899 24-290; P61769 21-119); assay: phage ELISA pH 6;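 further: higher score means stronger binding and above about 3 to 5 exceeds background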
T1 construct: Biotinylated in the ELISA, Octet and yeast assays; also called human FcRn; huFcRn
T1 sequence (P55899 24-290 limits assumed, chain 1 of 2): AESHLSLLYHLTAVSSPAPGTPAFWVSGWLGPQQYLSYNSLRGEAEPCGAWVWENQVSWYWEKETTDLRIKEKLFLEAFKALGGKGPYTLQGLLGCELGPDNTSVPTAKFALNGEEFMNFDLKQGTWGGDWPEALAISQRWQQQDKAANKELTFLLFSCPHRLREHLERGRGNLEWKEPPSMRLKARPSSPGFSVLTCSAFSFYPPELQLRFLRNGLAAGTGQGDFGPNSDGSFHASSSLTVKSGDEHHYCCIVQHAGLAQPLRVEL
T1 sequence (P61769 21-119 limits assumed, chain 2 of 2): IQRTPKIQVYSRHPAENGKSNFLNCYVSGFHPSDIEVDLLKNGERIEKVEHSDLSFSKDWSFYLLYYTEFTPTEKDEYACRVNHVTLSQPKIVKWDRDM
The entries below come with measured ELISA score values attached.

binder: L6B isolate with insertion SEQ ID NO: 468 (other) EPKSCDKTHTCPPCPAPELLGGPSVFLFPPKPKDTLMISRTPEVTCVVVDVSHEDPEVKFNWYVDGVEVHNAKTKPREEQYNSTYRVVSVLTVLHQDWLNGKEYKCKVSNKALPAPIEKTISKAKGQPREPQVYTLPPSRDELGGCTLGSAPTLCGGTKNQVSLTCLVKGFYPSDIAVEWESNGQPENNYKTTPPVLDSDGSFFLYSKLTVDKSRWQQGNVFSCSVMHEALHNHYTQKSLSLSPGK
ELISA score: 43.6
--
binder: L6B isolate with insertion SEQ ID NO: 472 (other) EPKSCDKTHTCPPCPAPELLGGPSVFLFPPKPKDTLMISRTPEVTCVVVDVSHEDPEVKFNWYVDGVEVHNAKTKPREEQYNSTYRVVSVLTVLHQDWLNGKEYKCKVSNKALPAPIEKTISKAKGQPREPQVYTLPPSRDELGGCPNDTVRDACGGTKNQVSLTCLVKGFYPSDIAVEWESNGQPENNYKTTPPVLDSDGSFFLYSKLTVDKSRWQQGNVFSCSVMHEALHNHYTQKSLSLSPGK
ELISA score: 42.2
